Structures can show the parent of a compound that is named as a salt.
List of melting point values.

Some solved entries appear below for comparison.
Incoming: Item COc1ccc(Cl)cc1[C@]1(F)C(=O)N(C(=O)OCOC(=O)CCC(=O)O)c2cc(C(F)(F)F)ccc21 has what recorded melting point?
Outgoing: 68 to 71 °C (dec.)

Incoming: Next up: COc1ccc(Cl)cc1[C@]1(F)C(=O)N(C(=O)N[C@@H](CCC(=O)O)C(=O)O)c2cc(C(F)(F)F)ccc21
Outgoing: 90 to 94 °C

Incoming: Next record, please: COc1ccc(Cl)cc1[C@]1(F)C(=O)N(C(=O)N[C@@H](Cc2ccccc2)C(=O)O)c2cc(C(F)(F)F)ccc21
Outgoing: 98 to 102 °C

Incoming: Then CCN(CC)Cc1ccc(C(=O)OCN2C(=O)[C@@](F)(c3cc(Cl)ccc3OC)c3ccc(C(F)(F)F)cc32)cc1 (as salt: trifluoroacetate) ?
Outgoing: 75 to 80 °C

Continuing:
Incoming: # melting point lookup, item CCN(CC)CCN(CC)Cc1ccc(C(=O)OCN2C(=O)[C@@](F)(c3cc(Cl)ccc3OC)c3ccc(C(F)(F)F)cc32)cc1 (as salt: hydrochloride)
Outgoing: 155 to 160 °C

Incoming: Same again, this time with COc1ccc(Cl)cc1[C@]1(F)C(=O)N(COC(=O)c2cccc(CN3CCN(C)CC3)c2)c2cc(C(F)(F)F)ccc21 (as salt: hydrochloride)
Outgoing: 190 to 193 °C (dec.)

---

Structures can show the parent of a compound that is named as a salt.
RECORDED_METRIC: melting point

// worked examples, melting point included
Incoming: Fill blank: measured melting point of the compound CCN(CC)Cc1cccc(C(=O)OCN2C(=O)[C@@](F)(c3cc(Cl)ccc3OC)c3ccc(C(F)(F)F)cc32)c1 (as salt: hydrochloride) [Example 28] is ____.
Outgoing: 195 to 198 °C (dec.)

Incoming: One more compound: COc1ccc(Cl)cc1[C@]1(F)C(=O)N(C(=O)NCCC(=O)O)c2cc(C(F)(F)F)ccc21 [Example 42]
Outgoing: 72 to 76 °C

Incoming: # iterate: COc1ccc(Cl)cc1[C@]1(F)C(=O)N(COC(=O)c2ccc(CN3CCN(C)CC3)cc2)c2cc(C(F)(F)F)ccc21 (as salt: hydrochloride) [Example 25]
Outgoing: 265 to 269 °C (dec.)

Incoming: Consider next the compound COc1ccc(Cl)cc1[C@]1(F)C(=O)N(COC(=O)c2ccc(CN3CCCCC3)cc2)c2cc(C(F)(F)F)ccc21 (as salt: trifluoroacetate) [Example 31] in the same way.
Outgoing: 85 to 89 °C

Incoming: What do you have for COc1ccc(Cl)cc1[C@]1(F)C(=O)N(C(=O)N[C@H](C(=O)O)C(C)C)c2cc(C(F)(F)F)ccc21 [Example 39] ?
Outgoing: 100 to 104 °C

Incoming: Thanks! And COc1ccc(Cl)cc1[C@]1(F)C(=O)N(COC(=O)CN(C)C)c2cc(C(F)(F)F)ccc21 (as salt: hydrochloride) [Example 14] ?
Outgoing: 157 to 160 °C

Next:
Incoming: Field request: melting point | item: CCN(CC)CCN(CC)Cc1cccc(C(=O)OCN2C(=O)[C@@](F)(c3cc(Cl)ccc3OC)c3ccc(C(F)(F)F)cc32)c1 (as salt: hydrochloride) [Example 30]
Outgoing: 120 to 125 °C

Incoming: Further, for CC[C@H](C)[C@H](NC(=O)N1C(=O)[C@@](F)(c2cc(Cl)ccc2OC)c2ccc(C(F)(F)F)cc21)C(=O)O [Example 40] ?
Outgoing: 88 to 92 °C
